- SYSTEM_NAME: BaIMPDH (Bacillus anthracis)
- ASSAY_METHOD_TEXT: biochemical
- Type: biochemical
- MEASUREMENT_PARAMETERS: read-out: Ki,app
ENDPOINT_NAME: pKi
Give only the number. pKi is defined as minus log10 of concentration in molar units.

Entry Nc1ncnc2c1ncn2[C@@H]1O[C@H](COP(=O)(O)OP(=O)(O)O)[C@@H](O)[C@H]1O , pKi reported as 2.21

----------
- SYSTEM_NAME: UniProtKB A0A6L8P2U9
- ASSAY_METHOD_TEXT: biochemical
- MEASUREMENT_PARAMETERS: k–8/k8, inhibitor dissociation constant from E·IMP
ENDPOINT_NAME: pKd
Formally, pKd is defined as -log10 of the concentration c, with c in mol/L.

In the examples that follow, each entry is paired with its recorded pKd.
* O=C(Cn1c(-c2ccccn2)nc2ccccc21)Nc1ccc2ccccc2c1 | 6.55
* Cn1nc(CC(=O)Nc2ccc3oc4c(c3c2)CCCC4)c2ccccc2c1=O | 5.96
* C/C(=N\OCCN)c1cccc(C(C)(C)NC(=O)Nc2ccc(Cl)c([N+](=O)[O-])c2)c1 | 6.96

Entry C[C@H](Oc1cccc2ccccc12)C(=O)Nc1ccc2oc(-c3ccncc3)nc2c1 , UniProtKB A0A6L8P2U9 data, pKd value: 7.42

----------
- SYSTEM_NAME: BaIMPDH (wild-type) (Bacillus anthracis)
- ASSAY_METHOD_TEXT: biochemical
- MEASUREMENT_PARAMETERS: Ki,app
ENDPOINT_NAME: Ki (nM)
Expressed in nM, but write only the number.

Known results for compounds:
* CC(C)(NC(=O)Nc1ccc(Cl)cc1)c1cccc(/C(N)=N/O)c1 | 16
* C=C(C)c1cccc(C(C)(C)NC(=O)Nc2ccc(Cl)c(NC3OCC(O)C(O)C3O)c2)c1 (stereo not drawn) | 16
* C=C(C)c1cccc(C(C)(C)NC(=O)Nc2ccc(Cl)c(OC3OC(CO)C(O)C3O)c2)c1 (stereo not drawn) | 12

response.value for C/C(=N\O)c1cccc(C(C)(C)NC(=O)Nc2ccc(Cl)c(-c3nc(C(F)(F)F)cs3)c2)c1 (field: Ki) = 8

// sample C=C(C)c1cccc(C(C)(C)NC(=O)Nc2ccc(Cl)c(NC3OC[C@@H](O)[C@H](O)[C@@H]3O)c2)c1 (stereo partly drawn) , its Ki was 20

// Ki lookup, compound = C/C(=N\OCCN)c1cccc(C(C)(C)NC(=O)Nc2ccc(Cl)c([N+](=O)[O-])c2)c1 , result: 94

----------
- SYSTEM_NAME: SpIMPDH (Streptococcus pyogenes, UniProt P0C0H6)
- Sequence (P0C0H6 whole entry): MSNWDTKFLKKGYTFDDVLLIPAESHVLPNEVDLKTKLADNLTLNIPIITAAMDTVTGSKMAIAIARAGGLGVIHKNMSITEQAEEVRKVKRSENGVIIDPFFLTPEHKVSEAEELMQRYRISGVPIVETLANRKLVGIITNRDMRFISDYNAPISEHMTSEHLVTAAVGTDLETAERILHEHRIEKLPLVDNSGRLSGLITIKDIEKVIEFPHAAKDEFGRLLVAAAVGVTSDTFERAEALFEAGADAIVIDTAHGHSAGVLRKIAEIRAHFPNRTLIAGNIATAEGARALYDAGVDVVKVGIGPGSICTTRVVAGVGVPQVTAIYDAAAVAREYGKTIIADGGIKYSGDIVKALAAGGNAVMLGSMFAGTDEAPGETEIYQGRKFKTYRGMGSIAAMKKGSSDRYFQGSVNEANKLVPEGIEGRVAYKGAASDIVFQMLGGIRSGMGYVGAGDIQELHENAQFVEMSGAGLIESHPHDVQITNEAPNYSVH
ENDPOINT_NAME: Ki
Form entry: enter the amount, then its unit.

The value of Ki measured for the compound C/C(=N\O)c1cccc(C(C)(C)NC(=O)Nc2ccc(Cl)c(C(N)=O)c2)c1 turned out to be 164 nM

----------
- SYSTEM_NAME: BaIMPDH (wild-type) (Bacillus anthracis, UniProt A0A6L8P2U9)
- Sequence (A0A6L8P2U9 221-487, added parts left off): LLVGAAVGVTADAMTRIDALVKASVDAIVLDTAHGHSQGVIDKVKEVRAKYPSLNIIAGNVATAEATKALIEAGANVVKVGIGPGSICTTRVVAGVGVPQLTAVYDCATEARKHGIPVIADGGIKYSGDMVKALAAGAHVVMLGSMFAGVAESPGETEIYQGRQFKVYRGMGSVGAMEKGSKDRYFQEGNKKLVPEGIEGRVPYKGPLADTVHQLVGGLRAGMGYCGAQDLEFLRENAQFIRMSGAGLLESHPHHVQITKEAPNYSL
- Format: biochemical
- MEASUREMENT_PARAMETERS: read-out: Ki(NAD^+)
ENDPOINT_NAME: Ki (mM)
// note: answer is a bare numeric in mM

Entry NC(=O)c1ccc[n+]([C@@H]2O[C@H](COP(=O)([O-])OP(=O)(O)OC[C@H]3O[C@@H](n4cnc5c(N)ncnc54)[C@H](O)[C@@H]3O)[C@@H](O)[C@H]2O)c1 , Ki reported as 9.6

----------
- SYSTEM_NAME: BaIMPDH (wild-type) (Bacillus anthracis)
- ASSAY_METHOD_TEXT: biochemical
ENDPOINT_NAME: Kd (µM)
Express your answer in µM, writing the number without its unit.

Value of measured Kd for the entry O=c1[nH]c(=O)c2ncn([C@@H]3O[C@H](COP(=O)(O)O)[C@@H](O)[C@H]3O)c2[nH]1 [XMP, xanthosine 5′-monophosphate] : 404
